System: Staph.
assay remarks: Range of MIC for Staph. strains, including MRSA
study conditions: Staphylococcus aureus, MRSA, read-out: Range of MIC, Staph (Mouse Serum)
We begin with a simple list: items and their reported MIC.
quantity name: MIC

INSERT INTO assay_data (molecule, result) VALUES
  ('CCCN(CC(=O)Nc1cc(N(C)C)c2c(c1O)C(=O)C1=C(O)[C@]3(O)C(=O)C(C(N)=O)=C(O)C(N(C)C)C3CC1C2)C(=O)OCc1oc(=O)oc1-c1ccccc1 (stereo in doubt) [Example 110]', '1 to 32 µg/mL'),
  ('CN(C)c1cc(NC(=O)CN(C(=O)OCOC(=O)c2ccccc2CCc2ccccc2)C(C)(C)C)c(O)c2c1C[C@H]1C[C@H]3[C@H](N(C)C)C(O)=C(C(N)=O)C(=O)[C@@]3(O)C(O)=C1C2=O [Example 103]', '8 to 16 µg/mL'),
  ('CN(C)c1cc(NC(=O)CN(C(=O)OCOC(=O)CCC2CCCCC2)C(C)(C)C)c(O)c2c1C[C@H]1C[C@H]3[C@H](N(C)C)C(O)=C(C(N)=O)C(=O)[C@@]3(O)C(O)=C1C2=O [Example 63]', '0.5 to 2 µg/mL'),
  ('CCCCN(CC(=O)Nc1cc(N(C)C)c2c(c1O)C(=O)C1=C(O)[C@]3(O)C(=O)C(C(N)=O)=C(O)[C@@H](N(C)C)C3CC1C2)C(=O)OCc1oc(=O)oc1C (stereo partly shown) [Example 109]', '0.5 to 2 µg/mL'),
  ('CN(C)c1cc(NC(=O)CN(C(=O)OCOC(=O)c2ccc(F)cc2)C(C)(C)C)c(O)c2c1C[C@H]1C[C@H]3[C@H](N(C)C)C(O)=C(C(N)=O)C(=O)[C@@]3(O)C(O)=C1C2=O [Example 52]', '0.5 to 1 µg/mL'),
  ('CN(C)c1cc(NC(=O)CN(C(=O)OCOC(=O)c2ccc(C(F)(F)F)cc2)C(C)(C)C)c(O)c2c1C[C@H]1C[C@H]3[C@H](N(C)C)C(O)=C(C(N)=O)C(=O)[C@@]3(O)C(O)=C1C2=O [Example 55]', '1 to 2 µg/mL'),
  ('CCCN(CC(=O)Nc1cc(N(C)C)c2c(c1O)C(=O)C1=C(O)[C@]3(O)C(=O)C(C(N)=O)=C(O)[C@@H](N(C)C)[C@@H]3C[C@@H]1C2)C(=O)OCOC(=O)Cc1ccccc1 [Example 11]', '0.25 to 4 µg/mL'),
  ('CCCN(CC(=O)Nc1cc(N(C)C)c2c(c1O)C(=O)C1=C(O)[C@]3(O)C(=O)C(C(N)=O)=C(O)[C@@H](N(C)C)[C@@H]3C[C@@H]1C2)C(=O)OCC [Example 15]', '2 to 16 µg/mL'),
  ('CCCCN(CC(=O)Nc1cc(N(C)C)c2c(c1O)C(=O)C1=C(O)[C@]3(O)C(=O)C(C(N)=O)=C(O)[C@@H](N(C)C)C3CC1C2)C(=O)OCOC(=O)C1CCCCC1 (stereo partly shown) [Example 34]', '0.25 to 4 µg/mL'),
  ('CN(C)c1cc(NC(=O)CN(C(=O)OCOC(=O)/C=C/c2ccccc2)C(C)(C)C)c(O)c2c1C[C@H]1C[C@H]3[C@H](N(C)C)C(O)=C(C(N)=O)C(=O)[C@@]3(O)C(O)=C1C2=O [Example 99]', '0.5 to 2 µg/mL');

----------
Tested on: S. aureus GC 1131
assay remarks: MIC, broth microdilution
study conditions: Staphylococcus aureus, GC1131, read-out: MINIMAL INHIBITORY CONCENTRATION MIC, Human Serum
Catalogue of MIC values
quantity name: MIC

INSERT INTO assay_data (molecule, system_name, result) VALUES
  ('CN(C)c1cc(NC(=O)CN(C(=O)OCOC(=O)C2CCCCC2)C(C)(C)C)c(O)c2c1C[C@H]1C[C@H]3[C@H](N(C)C)C(O)=C(C(N)=O)C(=O)[C@@]3(O)C(O)=C1C2=O [Example 50]', 'S. aureus GC 1131', '0.5 µg/mL'),
  ('COC(=O)N(CC(=O)Nc1cc(N(C)C)c2c(c1O)C(=O)C1=C(O)[C@]3(O)C(=O)C(C(N)=O)=C(O)[C@@H](N(C)C)[C@@H]3C[C@@H]1C2)C(C)(C)C [Example 60]', 'S. aureus GC 1131', '2 µg/mL'),
  ('CCCCOC(=O)N(CC(=O)Nc1cc(N(C)C)c2c(c1O)C(=O)C1=C(O)[C@]3(O)C(=O)C(C(N)=O)=C(O)[C@@H](N(C)C)[C@@H]3C[C@@H]1C2)C(C)(C)C [Example 58]', 'S. aureus GC 1131', '4 µg/mL'),
  ('CC(C)COC(=O)N(CC(=O)Nc1cc(N(C)C)c2c(c1O)C(=O)C1=C(O)[C@]3(O)C(=O)C(C(N)=O)=C(O)[C@@H](N(C)C)[C@@H]3C[C@@H]1C2)C(C)(C)C [Example 59]', 'S. aureus GC 1131', '4 µg/mL');

----------
System: E. coli GC 2270
assay remarks: MIC, broth microdilution
study conditions: Escherichia coli, GC2270, read-out: MINIMAL INHIBITORY CONCENTRATION MIC, pre-incubated in Mouse Serum
Here, each record is paired with measured MIC data.
quantity name: MIC (µg/mL)

INSERT INTO assay_data (molecule, numeric_readout) VALUES
  ('Cc1ccc(C(=O)OCOC(=O)N(CC(=O)Nc2cc(N(C)C)c3c(c2O)C(=O)C2=C(O)[C@]4(O)C(=O)C(C(N)=O)=C(O)[C@@H](N(C)C)[C@@H]4C[C@@H]2C3)C(C)(C)C)cc1 [Example 47]', 0.5),
  ('CCCN(CC(=O)Nc1cc(N(C)C)c2c(c1O)C(=O)C1=C(O)[C@]3(O)C(=O)C(C(N)=O)=C(O)[C@@H](N(C)C)[C@@H]3C[C@@H]1C2)C(=O)OCOC(=O)c1cc(C)cc(C)c1 [Example 26]', 1),
  ('CCCN(CC(=O)Nc1cc(N(C)C)c2c(c1O)C(=O)C1=C(O)[C@]3(O)C(=O)C(C(N)=O)=C(O)[C@@H](N(C)C)[C@@H]3C[C@@H]1C2)C(=O)OCOC(=O)c1cccs1 [Example 25]', 1),
  ('CCCN(CC(=O)Nc1cc(N(C)C)c2c(c1O)C(=O)C1=C(O)[C@]3(O)C(=O)C(C(N)=O)=C(O)[C@@H](N(C)C)[C@@H]3C[C@@H]1C2)C(=O)OCOC(=O)c1ccsc1 [Example 27]', 0.5),
  ('CCC(C)(C)C(=O)OCOC(=O)N(CC(=O)Nc1cc(N(C)C)c2c(c1O)C(=O)C1=C(O)[C@]3(O)C(=O)C(C(N)=O)=C(O)[C@@H](N(C)C)[C@@H]3C[C@@H]1C2)C(C)(C)C [Example 44]', 2);

----------
Entries annotated with measured MIC
Test system: E. coli GC 2232
assay remarks: MIC, broth microdilution
study conditions: Escherichia coli, GC2232, E. coli GC 2232; Mouse Serum pre-incubation
quantity name: MIC (µg/mL)

INSERT INTO assay_data (compound, unit_spec, numeric_readout) VALUES
  ('CCCCN(CC(=O)Nc1cc(N(C)C)c2c(c1O)C(=O)C1=C(O)[C@]3(O)C(=O)C(C(N)=O)=C(O)[C@@H](N(C)C)C3CC1C2)C(=O)OCOC(=O)c1ccc(OC)cc1 (stereo partly drawn) [Example 2]', 'µg/mL', 2),
  ('CCCN(CC(=O)Nc1cc(N(C)C)c2c(c1O)C(=O)C1=C(O)[C@]3(O)C(=O)C(C(N)=O)=C(O)[C@@H](N(C)C)[C@@H]3C[C@@H]1C2)C(=O)OCOC(=O)c1ccc(C)cc1 [Example 5]', 'µg/mL', 2),
  ('CCCCN(CC(=O)Nc1cc(N(C)C)c2c(c1O)C(=O)C1=C(O)[C@]3(O)C(=O)C(C(N)=O)=C(O)[C@@H](N(C)C)C3CC1C2)C(=O)OCOC(=O)c1ccc(C)cc1 (stereo partly drawn) [Example 3]', 'µg/mL', 2);

----------
Collected MIC values appear next to each entry.
Tested on: E. coli GC 2235
assay remarks: MIC, broth microdilution
study conditions: Escherichia coli, GC2235, E. coli GC 2235; Water pre-incubation
quantity name: MIC

INSERT INTO assay_data (input_smiles, quantity_name, result) VALUES
  ('CCCN(CC(=O)Nc1cc(N(C)C)c2c(c1O)C(=O)C1=C(O)[C@]3(O)C(=O)C(C(N)=O)=C(O)[C@@H](N(C)C)[C@@H]3C[C@@H]1C2)C(=O)OCOC(=O)C(C)C', 'MIC', '4 µg/mL'),
  ('CCCN(CC(=O)Nc1cc(N(C)C)c2c(c1O)C(=O)C1=C(O)[C@]3(O)C(=O)C(C(N)=O)=C(O)[C@@H](N(C)C)[C@@H]3C[C@@H]1C2)C(=O)OCOC(=O)C(C)(C)C', 'MIC', '4 µg/mL'),
  ('CCCN(CC(=O)Nc1cc(N(C)C)c2c(c1O)C(=O)C1=C(O)[C@]3(O)C(=O)C(C(N)=O)=C(O)[C@@H](N(C)C)[C@@H]3C[C@@H]1C2)C(=O)OCC', 'MIC', '32 µg/mL'),
  ('CCCN(CC(=O)Nc1cc(N(C)C)c2c(c1O)C(=O)C1=C(O)[C@]3(O)C(=O)C(C(N)=O)=C(O)[C@@H](N(C)C)[C@@H]3C[C@@H]1C2)C(=O)OCOC(=O)C1CCC1', 'MIC', '4 µg/mL');
